# System: rodent lifetime carcinogenesis bioassay, tumor incidence TD50
# assay.procedure: carcinogenic potency in animals, long-term in vivo studies, CPDB compilation (AID 1745844)
# assay.setup: rat; strain Fischer 344; females; by gavage; site: stomach; lesion: squamous-cell carcinoma + squamous-cell papilloma; dosed 103 weeks; study length 104 weeks
value.type: TD50 (mg/kg/day)
Numbers only, in mg/kg/day.

[in] What value of TD50 has been recorded for this entry: c1cc(OCC2CO2)cc(OCC2CO2)c1 (stereo unspecified)
[out] 4.47

----------
# Tested on: rodent lifetime carcinogenesis bioassay, tumor incidence TD50
# assay.procedure: carcinogenic potency in animals, long-term in vivo studies, CPDB compilation (AID 1745844)
# assay.setup: mouse; strain B6C3F1; females; inhaled; site: uterus; lesion: carcinoma; dosed 100 weeks; study length 100 weeks
value.type: TD50

[in] What value of TD50 has been recorded for this entry: `CCCl`
[out] 1810 mg/kg/day
